biological target: T1, Human CTLA-4-Fc (Chimerigen, CHI-HF-210A4-M001) (human, UniProt P16410 37-162); test: SPR (Biacore T200), human CTLA-4-Fc captured by anti-human IgG-Fc, mutein as analyte, 1:1 fit
T1 construct: Bought protein; also called hCTLA-4; not shown: Fc part of the bought fusion
T1 sequence (P16410 37-162 limits assumed, change not shown): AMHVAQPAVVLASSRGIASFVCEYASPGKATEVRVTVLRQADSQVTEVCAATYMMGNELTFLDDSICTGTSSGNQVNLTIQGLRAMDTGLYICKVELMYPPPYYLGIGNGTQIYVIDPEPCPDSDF
RECORDED METRIC: koff (s⁻¹)
Give the number; s⁻¹ is assumed, so skip it.

Give recorded koff. lipocalin mutein SEQ ID NO: 62 (designed binder) QDSTSDLIPAPPLSKVPLQQNFQDNQFQGKWYVVGLAGNRILRDDQHPMPMYATIYELKGDKSYNVTSVISSHKKCLYPIATFVPGSQPGEFTLGNIKSYGDKWSYLVRVVSTDYNQYAVVFFKHADSNYESFSITIYGRTKELASELKENFIRFSKSLGLPENHIVFPVPIDQCIDG
0.00027

Give the value of koff reported for the following: CTLA-4 specific lipocalin mutein (SEQ ID NO: 4) (designed binder, hNGAL (lipocalin 2) mutein) QDSTSDLIPAPPLSKVPLQQNFQDNQFHGKWYVVGLAGNRILRDDQHPMPMYATIYELKGDKSYNVTSVISSHKKCLYPIATFVPGSQPGEFTLGNIKSYGDKWSYLVRVVSTDYNQYAVVFFKHADSNYESFSITIYGRTKELASELKENFIRFSKSLGLPENHIVFPVPIDQCIDG
0.00022

Given lipocalin mutein SEQ ID NO: 61 (designed binder) QDSTSDLIPAPPLSKVPLQQNFQDNQFQGKWYVVGLAGNRILRLDQHPMPMYATIYELKGDKSYNVTSVISSHKKCLYPIATFVPGSQPGEFTLGNIRSYGDKTSYLVRVVSTDYNQYAVVFFKHADTNYESFSITIYGRTKELASELKENFIRFSKSLGLPENHIVFPVPIDQCIDG , respond with its koff.
0.00072
